target: DENND3; experiment: pooled miR-30 sensor sort-seq; sequence = guide strand; conditions: shRNA
value type: sensor-assay potency score (higher = more potent)
Please state the value as a number alone, without comment.

# residue codes, result
records = [
    ("TATCAGAACTAAACCGTCGGCT", 0.0696),
]

Readout sensor-assay potency score (higher = more potent) for TAGAGCAGCACGTCCACCGCTT , test system DENND3, was 0.371

Readout sensor-assay potency score (higher = more potent) for TTGATGATGTAGATGACGGAGT , test system DENND3, was -0.511

Measured sensor-assay potency score (higher = more potent) (DENND3), entry TTATCAGAACTAAACCGTCGGC : -0.359

Summary line: TAAATGATTCTTTACATCCCTG , DENND3, reported sensor-assay potency score (higher = more potent) = -0.0961

DENND3 assay, sequence TTGTAGAAATCTTTGAATGTTT , recorded sensor-assay potency score (higher = more potent) = -1.03

Bench note, DENND3: entry TTCCACACCAGCACCATGCCGT , its sensor-assay potency score (higher = more potent) = -0.0924

---

target: LCN1; assay: pooled miR-30 sensor sort-seq; sequence = guide strand; settings: shRNA
Consider the following sequences and their measured sensor-assay potency score (higher = more potent) readings.
Lab note: write the figure by itself, no unit.

So, TGGTCCTTCACGTGCGACCTGA ? Its sensor-assay potency score (higher = more potent) was -1.44

The sequence listed as TTCATCTCAGGGAACTCCCTGT has a reported sensor-assay potency score (higher = more potent) of 0.622

Record TTCCAGGGTCGTGAGGGTCATG . Reported sensor-assay potency score (higher = more potent): -1.33

Entry ATCCTGAATCTCCTCGTCTGAG — recorded sensor-assay potency score (higher = more potent) = -1.24

Per the records, this sequence ( TTGGCTTCCAGGTTGCCCCCTT ) has sensor-assay potency score (higher = more potent) equal to -0.189

Measured sensor-assay potency score (higher = more potent) of ATGCTCTCCGTGCTGAGTCCGC : -1.5

Looking up TTGTTCTTGGGGTCTCTGCCCA , I found its sensor-assay potency score (higher = more potent) recorded as -0.515

Value of sensor-assay potency score (higher = more potent) reported for the sequence TCCTGAATCTCCTCGTCTGAGG is -2.03

---

target: VAMP1; test: pooled miR-30 sensor sort-seq; sequence = guide strand; conditions: shRNA
value type: sensor-assay potency score (higher = more potent)
Please respond with just the number, no unit label.

Reference set (3 entries):
# residue codes, result
records = [
    ("TTTAGCTTGGCAGCACTGCTCT", -0.465),
    ("TTGACTGCAAAGTCCCAGGGTT", 0.215),
    ("AGCATGATCATCATCTTGCAGT", -1.92),
]

GET /value?item= TTTGGTGGAAGTACAACTGTTG &field=sensor-assay potency score (higher = more potent) returns 0.106

Form: sequence = TTTTGTTGCACATTTGCTCATG ; sensor-assay potency score (higher = more potent) = -0.374

For this sequence ( ATGATCATCATCTTGCAGTTTT ), measured sensor-assay potency score (higher = more potent) is -0.861

Field sensor-assay potency score (higher = more potent) (entry ATAACTACCACGATGATGGCAC ) reads 0.289

For reference, reported sensor-assay potency score (higher = more potent) for TTACTGGTCATGTTAGGAGGAG stands at -0.535

# sequence TAGCTTGGCAGCACTGCTCTCA ; its sensor-assay potency score (higher = more potent) = -0.655

Field sensor-assay potency score (higher = more potent) (entry TAGTCGTCTGTTACTGGTCATG ) reads -1.49

---

target: CTNNBIP1; assay: pooled miR-30 sensor sort-seq; sequence = guide strand; details: shRNA
Where sensor-assay potency score (higher = more potent) equals or exceeds -0.8, the correct label is Criterion met; where it does not, the label is Criterion not met.

# residue codes, label class
records = [
    ("TTGACCACCCCTGCATAGGTGC", "Criterion not met"),
]

Query string: For this sequence, is measured sensor-assay potency score (higher = more potent) -0.8 or higher? TCTCCTCCGGACTCTTCCCGGG
Result string: Criterion not met

Query string: # bool: sensor-assay potency score (higher = more potent) of TCTGCTGAATGTACATCTCCTC >= -0.8
Result string: Criterion met

Query string: Has TGAATGTACATCTCCTCCGGAC a recorded sensor-assay potency score (higher = more potent) greater than or equal to -0.8?
Result string: Criterion met

Query string: In plain terms: is recorded sensor-assay potency score (higher = more potent) at least -0.8 for TTCTGCTGAATGTACATCTCCT ?
Result string: Criterion met

Query string: Does the reported sensor-assay potency score (higher = more potent) for TGATCCCATCTTCCGCAGCATG fall at or above the -0.8 mark?
Result string: Criterion not met

Query string: Entry ATCTCCTCCGGACTCTTCCCGG : is its sensor-assay potency score (higher = more potent) no less than -0.8?
Result string: Criterion not met

Query string: Given the entry CTGAATGTACATCTCCTCCGGA , answer whether its sensor-assay potency score (higher = more potent) meets or surpasses -0.8.
Result string: Criterion met

---

biological target: LHX9; experiment: pooled miR-30 sensor sort-seq; sequence = guide strand; conditions: shRNA
sensor-assay potency score (higher = more potent) listing for selected sequences.
Answer with a number only.

# residue codes, subject of test, result
rows = [
    ("TTTCTGGGCAAGCTGCTTGAGG", "LHX9", -0.927),
    ("TTGAGGTCCTTGGCATCCGGGT", "LHX9", -1.42),
    ("TGTCACTACAGTGATAGTGGGA", "LHX9", 0.281),
]

Record summary for TTCCTTCTGAATTTGGCTCGTG : reported sensor-assay potency score (higher = more potent) = 0.209

sensor-assay potency score (higher = more potent) recorded for this sequence, TTAAAGTGGTCGCAGTGCCGGG , is -1.18

TGCGTTTTGGAACCAAACCTGC yielded sensor-assay potency score (higher = more potent) of -1.08

---

biological target: PPM1E; assay: pooled miR-30 sensor sort-seq; sequence = guide strand; settings: shRNA
Note to self: values exactly at 0.1 are YES. So sensor-assay potency score (higher = more potent) at or above 0.1 is YES, below is NO.

Before answering, review these 2 worked examples.
# residue codes, label class
rows = [
    ("TAGATTGAAAACACTGTACTTT", "YES"),
    ("TTTCTCACAAGCATAACCTGGG", "YES"),
]

Query string: Reported sensor-assay potency score (higher = more potent) at or above 0.1? TTTGGATTAAACCTGAATCTGT
Result string: NO

Query string: Would you say TATTTGTGTGAGATCTAGGTAG shows sensor-assay potency score (higher = more potent) at minimum 0.1?
Result string: YES

Query string: Check this sequence for sensor-assay potency score (higher = more potent) at or above 0.1: TTGCTTTCTTTGGTGCACCAGG
Result string: NO

Query string: Reported sensor-assay potency score (higher = more potent) reaches at least 0.1 for TATATTTGTAGAGCTGCTGCAG ?
Result string: YES

Query string: Answer whether sensor-assay potency score (higher = more potent) of TTACATTTAAGAATTGAGCCAT is greater than or equal to 0.1.
Result string: YES

Query string: Entry TTGCTTGCTTCTATTTGTGTGA : is its sensor-assay potency score (higher = more potent) no less than 0.1?
Result string: NO

---

biological target: GPIHBP1; assay: pooled miR-30 sensor sort-seq; sequence = guide strand; conditions: shRNA
value type: sensor-assay potency score (higher = more potent)

Please review the following examples before continuing.
# residue codes, result
records = [
    ("TTGCACAGGCTGGACTGGCAGC", -1.25),
    ("TTCCTCGTCGTAGTCATCTGGC", -0.201),
    ("TCATCTTCCTCGTCGTAGTCAT", -0.418),
    ("TTCAACCTCATCCTCATCTTCC", -0.334),
    ("TTGTGCAGGTCTGGCCATGTGA", -0.97),
    ("TTCCTCTTCCTCCTGCTGTGTC", -0.491),
    ("TCGTCGTAGTCATCTGGCCCGT", -1.29),
    ("TGTTGGTCTCCTCCTCTTCAAC", -1.59),
]

Kindly note the recorded sensor-assay potency score (higher = more potent) for ATCCTCATCTTCCTCGTCGTAG , which is -0.474

---

target: CDC34; assay: pooled miR-30 sensor sort-seq; sequence = guide strand; conditions: shRNA
Dear colleague, classification is by sensor-assay potency score (higher = more potent), with ranges listed here: low (below -1), middle (-1 to below -0.7), high (-0.7 or more)

Record excerpt, results attached:
# residue codes, label class
data = [
    ("TGGTCTTCACGCAGTACTCGGC", "low"),
    ("TAGTCGATGGGGAACTTGAGGC", "low"),
    ("TTGGTCTTCACGCAGTACTCGG", "low"),
    ("TAGTCGTCGTAGAAGAGGTCTG", "high"),
    ("TAGATCGCCCTCGTCCACCAGT", "middle"),
]

Query string: Class label required: TAGTAGTCGTCGTAGAAGAGGT
Result string: middle

Query string: Into which category would you place TCCTCGTAGTAGTCGTCGTAGA ?
Result string: low

Query string: Place this sequence in its band: ATGATGTCTGTGTACTCCCGAT
Result string: low

Query string: Consider TCGTCCACCAGTGTCACGCGGA . To which sensor-assay potency score (higher = more potent) class does it belong?
Result string: middle

Query string: Using the reported sensor-assay potency score (higher = more potent), which band applies to TAGGGTGCCACATCTTGGTCAG ?
Result string: high

Query string: Consider TGTCTGTGTACTCCCGATCCTT . To which sensor-assay potency score (higher = more potent) class does it belong?
Result string: low

Query string: For this sequence, which bin applies? TCGTCGTAGAAGAGGTCTGAGC
Result string: low

Query string: Given TCATCGTCCCCGAAGCAGCTGT , name the class its sensor-assay potency score (higher = more potent) places it in.
Result string: high

Query string: Classify this sequence: TTGGTCAGGAACCGAAAGGCTG
Result string: middle

Query string: Categorize the following entry: TTCCTGTACATCACGGAGGCGT
Result string: high
